- target or system: T1, Rb^P S474I (human, UniProt P06400 380-788, S474I)
- T1 construct: also called variant 11
- T1 sequence (looked up): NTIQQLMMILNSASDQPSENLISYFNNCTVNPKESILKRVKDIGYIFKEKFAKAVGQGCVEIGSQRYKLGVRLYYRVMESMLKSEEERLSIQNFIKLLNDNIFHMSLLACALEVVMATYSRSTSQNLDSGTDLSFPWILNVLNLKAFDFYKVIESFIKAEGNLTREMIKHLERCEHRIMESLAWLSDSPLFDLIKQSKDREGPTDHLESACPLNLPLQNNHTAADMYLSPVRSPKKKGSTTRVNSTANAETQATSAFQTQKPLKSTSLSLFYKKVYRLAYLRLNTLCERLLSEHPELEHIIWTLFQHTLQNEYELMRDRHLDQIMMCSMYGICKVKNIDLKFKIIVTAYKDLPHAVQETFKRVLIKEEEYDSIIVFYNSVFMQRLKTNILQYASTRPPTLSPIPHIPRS
- assay: fluorescence polarisation; 25 °C; unlabeled Rb^P titrated against 1.5 nM TMR-E2F1^TD or 7.5 nM TMR-E7^LxCxE; 25 mM Tris pH 8.0, 200 mM NaCl, 1 mM DTT, 0.1% Tween-20; 2 min incubation; quadratic fit; apparent Kd for the variants, Kd for WT
- condition details: both partners purified
No end group written: not given here. TMR = tetramethyl rhodamine dye
// pKd lookup, one value per entry
Kindly note that pKd refers to -log10 of the concentration in mol/L and answer with the value alone.

DLYCYEQLN (also: TMR label, position not given here, source: synthetic peptide, bought: GenScript) [TMR-E7^LxCxE, LxCxE peptide of the E7 oncoprotein from HPV]: 8.15

Which pKd is listed for {TMR}-GEGIRDLFDCDFGDLTPLD (also called E2F^TD; source: synthetic peptide, bought: GenScript) [TMR-E2F1^TD, peptide of the E2F1 transactivation domain] ?
6.44
